Reference source for all entries: the supplement of paper PMC7335073

# System tested: DNMT3A catalytic domain (mouse) (UniProt O88508)
# Assay text: relative CpG methylation activity (normalised to average over all NNNCGNNN flanks) (relative (1 = mean)); higher = more methylation of the central CpG
# Reported conditions: system: in vitro, murine catalytic domain; CpG state: hemimethylated substrate pool; residues: 608-908
Whole data set: some 4,100 sequences, median “relative CpG methylation activity (normalised to average over all NNNCGNNN flanks)” near 0.87, cut for the highest 2% near 2.4. The sample as a whole holds a higher share of the highest values than the screen did.
Returns criterion met if the recorded relative CpG methylation activity is greater than or equal to 2, and criterion not met otherwise.

Completed entries (count: 6):
CCTCGCCC : criterion met
ATCCGCGT : criterion not met
ATACGTCC : criterion met
GTACGCCG : criterion not met
CCTCGCCT : criterion met
CTACGCCT : criterion met

[ask] Check the entry `CCACGCCT` : does relative CpG methylation activity equal or exceed 2?
[reply] criterion met

[ask] hey, is relative CpG methylation activity for this one >= 2? `CCTCGCCG`
[reply] criterion not met

[ask] Threshold query (relative CpG methylation activity >= 2) on `CTCCGAAG`
[reply] criterion not met

[ask] Given the entry `CCACGCCG` , answer whether its relative CpG methylation activity meets or surpasses 2.
[reply] criterion not met

* * *

Listed sequences paired with reported relative CpG methylation activity
# System tested: DNMT3A catalytic domain (mouse) (UniProt O88508)
# Assay text: relative CpG methylation activity (normalised to average over all NNNCGNNN flanks) (relative (1 = mean)); higher = more methylation of the central CpG
# Reported conditions: system: in vitro, murine catalytic domain; CpG state: hemimethylated substrate pool; residues: 608-908
In all, about 4,100 sequences were measured (“relative CpG methylation activity (normalised to average over all NNNCGNNN flanks)”: median about 0.87, highest 2% from about 2.4 on). The sample as a whole holds a higher share of the highest values than the screen did.
Just the number, please.

Study these solved cases before continuing.
CTACGCTA : 2.5
CCGCGGAA : 0.965
GATCGCCG : 0.545

[ask] Query: relative CpG methylation activity; subject: `TAGCGGGT`
[reply] 0.231

[ask] Fill blank: measured relative CpG methylation activity of the sequence `GTTCGGTT` is ____.
[reply] 0.726

[ask] Which relative CpG methylation activity value belongs to `CGCCGACA` ?
[reply] 0.962

[ask] Returns the measured relative CpG methylation activity for the input sequence. Input: `GCCCGGAT`
[reply] 0.551

[ask] Returns the measured relative CpG methylation activity for the input sequence. Input: `GTCCGTCC`
[reply] 2.02

[ask] Given the entry `CAACGCTC` , report its measured relative CpG methylation activity.
[reply] 1.36

[ask] What value of measured relative CpG methylation activity is listed for `TACCGGGC` ?
[reply] 0.455

[ask] Which relative CpG methylation activity reading was recorded for the sequence `GAACGTCC` ?
[reply] 1.06

[ask] If you can, please state the reported relative CpG methylation activity value of `CGACGCTC` .
[reply] 1.38

[ask] # get_value(readout='relative CpG methylation activity', item= `CTTCGCTA` )
[reply] 1.66

[ask] Recorded relative CpG methylation activity for `ATCCGTCC` , please?
[reply] 2.61

[ask] Report relative CpG methylation activity for `CTGCGTCC` please.
[reply] 2.14
